This collection of values is drawn from ChEMBL document CHEMBL1201862.

- System: K562
- TEST: NCI tumour cell line growth inhibition, 48 h
Calls of active or inactive are those of the source. Cut-off read from the data, not from the text of the source: active = GI50 up to about 1.1 µM and inactive = higher.
Result category, one only: active, inactive

- MOLECULE: "Oc1ccc(Cn2c(-c3ccc(O)c(O)c3)nc3ccccc32)cc1O"
  ASSAYED TARGET: "K562"
  CATEGORY LABEL: "inactive"
- MOLECULE: "CCCCCC(=O)OC[n+]1cccc(-c2c(COC(=O)NC(C)C)c(COC(=O)NC(C)C)c3n2CCC3)c1"
  ASSAYED TARGET: "K562"
  CATEGORY LABEL: "inactive"
- MOLECULE: "Cc1cc(C)n(-c2nc(-n3nc(C)cc3C)nc(-n3nc(C)cc3C)n2)n1"
  ASSAYED TARGET: "K562"
  CATEGORY LABEL: "inactive"
- MOLECULE: "O=C(/C=C(\\O)c1cc(-c2ccccc2)n(-c2ccccc2)n1)c1ccccc1"
  ASSAYED TARGET: "K562"
  CATEGORY LABEL: "inactive"
- MOLECULE: "Cc1cc(C)nc(SCCc2cccc[n+]2C)n1"
  ASSAYED TARGET: "K562"
  CATEGORY LABEL: "inactive"

Kindly provide the recorded test outcome for the following molecule: "Nc1nc(Cl)cc(NCCCCCCCCCCCCNc2cc(Cl)nc(N)n2)n1"
active

What classification did O=C(CCC(=O)Nc1ccccc1C(F)(F)F)N/N=C1\C(=N\NC(=O)CCC(=O)Nc2ccccc2C(F)(F)F)C(c2ccc3c(c2)OCO3)Oc2ccccc21 (configuration not stated) end up with in this test?
inactive
